# Test system: UACC-257 melanoma
# EXPERIMENT_DESCRIPTION: NCI tumour cell line growth inhibition, 48 h
Below: a set of entries, each annotated with reported TGI.

Worked cases, TGI given:
Output measured TGI for this item: Nc1ccc2nc3c(nc2c1)C(=O)c1ccccc1-3
> 100 µM

Output measured TGI for this item: CCOC(=O)C1SC(=Nc2cccc(Cl)c2C)N=C1C (stereo not given)
> 10 µM

Output measured TGI for this item: C=CCc1[nH]c2c(OCc3ccccc3)cc(N(CC=C)C(C)=O)cc2c1C
30.6 µM

Output measured TGI for this item: O=S(=O)([O-])c1ccc(N=Cc2ccccc2[O-])cc1.O=S(=O)([O-])c1ccc(N=Cc2ccccc2[O-])cc1.[O]=[U+2]=[O]
> 100 µM

Query molecule follows.
Output measured TGI for this item: Cc1ccc(S(=O)(=O)N2CCN(S(=O)(=O)c3ccc(C)cc3)CCN(S(=O)(=O)c3ccc(C)cc3)Cc3cc(C#N)c(C#N)cc3CN(S(=O)(=O)c3ccc(C)cc3)CC2)cc1
> 100 µM

====

# Test system: IGROV1 ovarian
# EXPERIMENT_DESCRIPTION: NCI tumour cell line growth inhibition, 48 h
READOUT_TYPE: TGI

Worked cases, TGI given:
Output measured TGI for this item: COc1nc2ccc(COc3ccc(C(=O)NC(CCC(=O)O)C(=O)O)cc3)cc2nc1OC (configuration not stated)
> 10 µM

Output measured TGI for this item: Cc1ccc(S(=O)(=O)c2ccc(NC(=O)SCCC(=O)O)cc2)cc1
> 100 µM

Output measured TGI for this item: CN(C)c1ccc(/C=C/c2ccnc3c(O)cccc23)cc1
> 100 µM

Output measured TGI for this item: O=C(c1cc2ccccc2[nH]1)N1C2CCC1CN(CCOC(c1ccc(F)cc1)c1ccc(F)cc1)CC2 (configuration not stated)
> 100 µM

Output measured TGI for this item: Clc1c(Cl)c(Cl)c2c(nnn2C2CCCO2)c1Cl (configuration not stated)
> 100 µM

Output measured TGI for this item: COc1ccc2sc3cccc(NCCN(C)C)c3c(=O)c2c1
11.6 µM

Output measured TGI for this item: O=C(O)CSC(CC1(c2ccc(Cl)cc2)NC(=O)CS1)c1ccc(Cl)cc1 (configuration not stated)
> 100 µM

Output measured TGI for this item: COc1ccc(N=C2S/C(=N\C(=Nc3ccccc3)SCc3ccccc3)N(c3ccccc3)C2=Nc2ccc(OC)cc2)cc1
> 100 µM

Query compound follows.
Output measured TGI for this item: Nc1cc(F)ccc1CC(=O)O
> 100 µM

====

# Test system: IGROV1 ovarian
# EXPERIMENT_DESCRIPTION: NCI tumour cell line growth inhibition, 48 h
READOUT_TYPE: TGI

Worked cases, TGI given:
Output measured TGI for this item: CN(C)CCCC1c2ccccc2Oc2ccc(C(F)(F)F)cc21 (stereo not given)
27.6 µM

Output measured TGI for this item: O=C(O)CSCc1cc2c(O)c(c1)Cc1cc(CSCC(=O)O)cc(c1O)Cc1cc(CSCC(=O)O)cc(c1O)Cc1cc(CSCC(=O)O)cc(c1O)C2
> 100 µM

Output measured TGI for this item: COc1cccc2ccc(C(=O)c3ccccc3)nc12
> 100 µM

Output measured TGI for this item: CC(C)C1OC(N)=C(C#N)C1(C#N)C#N (stereo not given)
> 100 µM

Query molecule follows.
Output measured TGI for this item: O=C1CC[C@H](N2C(=O)c3cccc4c(Cc5ccc(CN6CCOCC6)cc5)ccc2c34)C(=O)N1
> 100 µM

Origin of the recorded values: PubChem BioAssay (NCI)
